# Tested on: MRC-5 LD
# assayMethodText: Cytotoxic MTS assay, MRC-5 LD fibroblasts (doxorubicin-resistant)
# Assay type: cell-based
# conditionDetails: MRC5, doxorubicin-resistant human fibroblasts, 72 h, median of five assays
Measured pIC50 values are reported for all entries that follow.
# pIC50 = -log10(concentration in molar units)

Example results:
C=C1C(=O)C23CCC(C(=C)C)C(C)(CCC(=O)OC)C2CCC1C3 (stereo not drawn) [Compound 2, Caracasine] ... 5.20
C=C1C(=O)C23CCC(C(=C)C)C(C)(CCC(=O)OC(C)=O)C2CCC1C3 (stereo not drawn) [Compound 7, Caracasine-Acetic Anhydride] ... 5.26
C=C1C(=O)C23CCC(C(=C)C)C(C)(CCC(=O)O)C2CCC1C3 (stereo not drawn) [Compound 1, Caracasine Acid] ... 5.17

Alright, here's another compound for you.
query: Query the reported pIC50 for MRC-5 LD; item: C=C1C(=O)C23CCC(C(=C)C)C(C)(CCC(=O)OC4CCCCC4)C2CCC1C3 (stereo not drawn) [Compound 3, Caracasine Acid Cyclohexyl Ester]
result: 5.57
